TARGET OR SYSTEM: PfCSP full length (Plasmodium falciparum (isolate NF54), UniProt P19597)
Sequence (P19597 20-375): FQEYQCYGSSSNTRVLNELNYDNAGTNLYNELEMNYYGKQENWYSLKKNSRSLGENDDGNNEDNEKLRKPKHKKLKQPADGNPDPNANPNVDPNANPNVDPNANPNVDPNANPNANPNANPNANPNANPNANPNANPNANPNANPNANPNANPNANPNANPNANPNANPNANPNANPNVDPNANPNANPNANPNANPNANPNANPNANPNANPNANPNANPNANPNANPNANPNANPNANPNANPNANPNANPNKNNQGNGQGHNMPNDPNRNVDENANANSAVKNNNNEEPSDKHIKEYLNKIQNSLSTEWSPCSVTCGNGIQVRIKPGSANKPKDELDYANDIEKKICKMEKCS
TEST DESCRIPTION: ELISA AUC
For each of the binders below, state its binding score.
Numbers only.

Requested read-out: binding score. Entry: CL-513809 (antibody, V domains shown, peptides N-terminally acetylated and C-terminally amidated) VH: QVQLVESGGGVVQPGRSLRLSCAASGFIFSNYGMYWVRQTPDKGLEWVALIWYDGNNKFYSDSVKGRFTVSRDNSKNTLYLQMNSLRDEDTALYYCARAGYFYGSGSSLDKWGQGTLVTVSS VL: DIQMTQSPSTLSASVGDRVSITCRASQSISIWLAWYQQKPGKAPKLLIYKASSLESGVPSRFSGSGSGTEFTLTISSLQPDDFATYYCQQYNSYWTFGQGTKVEIK 2.34

Now consider a different binder.
// returns reported binding score for input CL-510458 (antibody, V domains shown, peptides N-terminally acetylated and C-terminally amidated) VH: QVQLVESGGGVVQPGRSLRLSCAASGFTFNNYGMHWVRQAPGKGLEWVAVIWYDGSNKFHADSVKGRFTISRDNSKNTLYLQMNSLRAEDTALYYCARVYYYDSGSYLDYWGQGTLVTVSS VL: DIQMTQSPSSVSASVGDRVTITCRASQGISRWLAWYQQKPGKAPKLLIYAASSLQSGVPSRFSGSGSGTDFTLTISSLQPEDFATYCCQQANNFPWTFGQGTKVEIK 2
